# experimentalProtocol: Selective binding affinity against Opioid receptor delta 1, using [3H]DPDPE as radioligand
reportedMetric: Ki

sampleSmiles: CN1CC[C@]23c4c5ccc(O)c4O[C@H]2C(=O)C2(Cc4ccccc4C2)C[C@@]3(O)[C@H]1C5
reportedMeasurement: 1.4 nM

----------
# experimentalProtocol: Selective binding affinity against Opioid receptor delta 2, using [3H]DSLET as radioligand
pKi: −log10 of the molar value.
reportedMetric: pKi

sampleSmiles: CN1CC[C@]23c4c5ccc(O)c4O[C@H]2C(=O)C2(Cc4ccccc4C2)C[C@@]3(O)[C@H]1C5
reportedMeasurement: 8.48
